Where do these numbers come from? They come from PubChem BioAssay (NCI).

growth inhibition reference
test.method.notes: NCI Yeast Anticancer Drug Screen. Data for the mec2-1 strain (AID 157)
particulars: S. cerevisiae mec2-1 strain, at 11.0 µM, stronger effect = higher value
Compounds without any hit were thinned out: in the full panel of roughly 79,000, 15% have a hit.
assay.readout: growth inhibition (%)

>>> df
                                    molecule  unit_spec  recorded_value
 0                 CC(C)OC(=O)NNc1cccc(Cl)c1          %              55
 1  O=C(O)C1CCCCC1c1c2ccc(=O)cc-2oc2cc(O)ccc12 (stereo not given)          %               3
 2  O=C(Cc1ccccc1)NNc1nc(NNC(=O)c2ccncc2)nc(Nc2ccc(Cl)cc2)n1          %              -1
 3  O=C(O)/C=C\C(=O)Nc1ccc2c(c1)Cc1cc(Cl)ccc1-2          %              -2
 4             S=C(NCc1ccccn1)N/N=C/c1ccccn1          %              99
 5      CC1=CC(=O)C=CC1=Nc1cc(Cl)c(O)c(Cl)c1          %              -4
 6  O=C1Oc2ccccc2C(=O)/C1=C/N1C(=O)N/C(=C\c2ccccc2Br)C1=O          %               7
 7                  ClCCCOc1c(Cl)cc(Cl)cc1Cl          %              -2
 8  CC(=O)Oc1ccc2c(c1)Cc1cc(N3C(=O)C=CC3=O)ccc1-2          %              72
 9           COC(=O)c1ccccc1N=NNc1cccc(SC)c1          %              19
10  CC(C)CCC[C@@H](C)[C@H]1CC[C@H]2[C@@H]3CC[C@H]4C[C@H](N)CC[C@]4(C)[C@H]3CC[C@]12C          %              -2
11            Nc1ccc(/C=C/c2ccc3cccnc3c2)cc1          %              -3
12           CC(C)OC(=O)NNc1c(Cl)cc(Cl)cc1Cl          %               0
13  O=C1C(=O)c2cccc([N+](=O)[O-])c2-c2ccccc21          %              10
14  COc1cc2c(cc1O)[C@H](C)C(c1ccccc1OC)O2 (stereo not given in full)          %             -20
15           Oc1ccc(C2(c3ccc(O)cc3)CCCC2)cc1          %              32
16  CCOP(=O)(OCC)/C(C#N)=C/c1ccc(-c2ccc(F)cc2F)o1          %              -4
17                         CCOc1ccc(N)c(S)c1          %              17
18  CN(C)CCCn1c2c3ccccc3ccc2c2oc(=O)c3ccccc3c21          %              48
19  Cc1cccc2c(NCCCN(C)C)c3c([N+](=O)[O-])ccc(C)c3nc12          %              96
20                 Brc1ccc(B2Nc3ccccc3N2)cc1          %              18
21                     O=C(Nc1cccs1)c1ccccc1          %              -4
22                           OC1(C#CI)CCCCC1          %              89
23                 CCN(CC)C(=S)SC(=S)N(CC)CC          %              32
24  COC(=O)C(=O)c1c(-c2ccc(Cl)c(Cl)c2)[nH]c2[nH]n(-c3ccccc3)c(=O)c2c1=O          %              40
